test system: IL-8; assay: Rhinovirus-induced IL-8 release in BEAS2B cells; assay type: cell-based; conditions: Homo sapiens, BEAS-2B, at 0.04 μg/mL; read-out: HRV IL-8 (BEAS2B) % inhibition
Recorded inhibition at 0.04 µg/mL values for a group of molecules are listed next.
Provide the reading as a plain figure in %.

In one line, give reported inhibition at 0.04 µg/mL of the entry Cc1ccc(-n2nc(C(C)(C)C)cc2NC(=O)Nc2ccc(Oc3ccnc(Nc4ccc(O)cc4Cl)n3)c3ccccc23)cc1 [Example 31] . 100

In one line, give reported inhibition at 0.04 µg/mL of the entry COc1cccc(Nc2nccc(Oc3ccc(NC(=O)Nc4cc(C(C)(C)C)nn4-c4ccc(C)cc4)c4ccccc34)n2)c1 [Example 14] . 100

In one line, give reported inhibition at 0.04 µg/mL of the entry COc1ccccc1Nc1nccc(Oc2ccc(NC(=O)Nc3cc(C(C)(C)C)nn3-c3ccc(C)cc3)c3ccccc23)n1 [Example 5] . 49

In one line, give reported inhibition at 0.04 µg/mL of the entry COc1ccc(Nc2nccc(Oc3ccc(NC(=O)Nc4cc(C(C)(C)C)nn4-c4ccc(C)cc4)c4ccccc34)n2)cc1OC [Example 27] . 100

In one line, give reported inhibition at 0.04 µg/mL of the entry Cc1ccc(-n2nc(C(C)(C)C)cc2NC(=O)Nc2ccc(Oc3ccnc(Nc4ccc(Cl)cc4)n3)c3ccccc23)cc1 [Example 16] . 100

In one line, give reported inhibition at 0.04 µg/mL of the entry CC(C)(C)c1cc(NC(=O)Nc2ccc(Oc3ccnc(Nc4ccccc4)n3)c3ccccc23)n(-c2ccc(O)cc2)n1 [Example 3] . 100

In one line, give reported inhibition at 0.04 µg/mL of the entry Cc1ccc(-n2nc(C(C)(C)C)cc2NC(=O)Nc2ccc(Oc3ccnc(Nc4ccc(O)cc4F)n3)c3ccccc23)cc1 [Example 30] . 100

Taken from patent US10238658B2.
